I'd be grateful if you could share measured pIC50 for these entries.
- Tested on: SU-DHL-1 cells
- test-description: Cell viability (Cell Titer Glo 2.0) in SU-DHL-1 cells
- Assay type: cell-based
- condition-set: Homo sapiens, 120 hours at 37° C., Cell Titer Glo 2.0, normalized to non-treated controls
pIC50: −log10 of the molar value.

Which pIC50 value is on record for CC[C@@]1(O)C(=O)OCc2c1cc1n(c2=O)Cc2c-1nc1ccc(N)cc1c2NC ?
< 7.70

Which pIC50 value is on record for CC[C@@]1(O)C(=O)OCc2c1cc1n(c2=O)Cc2c-1nc1ccc(N)cc1c2N1CC2(CCOCC2)C1 ?
> 8.30

Which pIC50 value is on record for CC[C@@]1(O)C(=O)OCc2c1cc1n(c2=O)Cc2c-1nc1ccc(N)cc1c2CN1CCN(C)CC1 ?
7.70 to 8.30

Which pIC50 value is on record for CC[C@@]1(O)C(=O)OCc2c1cc1n(c2=O)Cc2c-1nc1ccc(N)cc1c2COC ?
> 8.30

Which pIC50 value is on record for CC[C@@]1(O)C(=O)OCc2c1cc1n(c2=O)Cc2c-1nc1ccc(N)cc1c2CO ?
7.70 to 8.30

Which pIC50 value is on record for CC[C@@]1(O)C(=O)OCc2c1cc1n(c2=O)Cc2c-1nc1ccc(N)cc1c2N(C)CCO ?
< 7.70

Which pIC50 value is on record for CC[C@@]1(O)C(=O)OCc2c1cc1n(c2=O)Cc2c-1nc1ccc(N)cc1c2N1CC2(COC2)C1 ?
7.70 to 8.30

Which pIC50 value is on record for CC[C@@]1(O)C(=O)OCc2c1cc1n(c2=O)Cc2c-1nc1ccc(N)cc1c2CN1CCOCC1 ?
> 8.30

====

- Test system: SU-DHL-1 cells
- test-description: Cell viability (Cell Titer Glo 2.0) in SU-DHL-1 cells
- Type: cell-based
- condition-set: Homo sapiens, 120 hours at 37° C., Cell Titer Glo 2.0, normalized to non-treated controls
pIC50: −log10 of the molar value.
I'd be grateful if you could share measured pIC50 for these entries.

Which pIC50 value is on record for CC[C@@]1(O)C(=O)OCc2c1cc1n(c2=O)Cc2c-1nc1ccc(N)cc1c2N1CCN(S(C)(=O)=O)CC1 [Compound 15] ?
7.70 to 8.30

Which pIC50 value is on record for CC[C@@]1(O)C(=O)OCc2c1cc1n(c2=O)Cc2c-1nc1ccc(N)cc1c2N(C)C [Compound 14] ?
7.70 to 8.30

Which pIC50 value is on record for CC[C@@]1(O)C(=O)OCc2c1cc1n(c2=O)Cc2c-1nc1ccc(N)cc1c2N1C[C@H]2CC[C@@H](C1)O2 [Compound 18] ?
> 8.30

Which pIC50 value is on record for CC[C@@]1(O)C(=O)OCc2c1cc1n(c2=O)Cc2c-1nc1ccc(N)cc1c2N1CCOCC1 [Compound 5] ?
> 8.30

Which pIC50 value is on record for CC[C@@]1(O)C(=O)OCc2c1cc1n(c2=O)Cc2c-1nc1ccc(N)cc1c2CN1CCS(=O)(=O)CC1 [Compound 3] ?
< 7.70

====

- System: SU-DHL-1 cells
- test-description: Cell viability (Cell Titer Glo 2.0) in SU-DHL-1 cells
- Assay type: cell-based
- condition-set: Homo sapiens, 120 hours at 37° C., Cell Titer Glo 2.0, normalized to non-treated controls
measurement-type: IC50

Which IC50 value is on record for CC[C@@]1(O)C(=O)OCc2c1cc1n(c2=O)Cc2c-1nc1ccc(N)cc1c2N1CCCC1 ?
5 to 20 nM

Which IC50 value is on record for CC[C@@]1(O)C(=O)OCc2c1cc1n(c2=O)Cc2c-1nc1ccc(N)cc1c2N(C)CCOC ?
< 5 nM

Which IC50 value is on record for CC[C@@]1(O)C(=O)OCc2c1cc1n(c2=O)Cc2c-1nc1ccc(N)cc1c2N1CC2(CCOC2)C1 ?
< 5 nM

Which IC50 value is on record for CC[C@@]1(O)C(=O)OCc2c1cc1n(c2=O)Cc2c-1nc1ccc(N)cc1c2N1CCSCC1 ?
< 5 nM

Which IC50 value is on record for CC[C@@]1(O)C(=O)OCc2c1cc1n(c2=O)Cc2c-1nc1ccc(N)cc1c2N ?
> 20 nM

Which IC50 value is on record for CC[C@@]1(O)C(=O)OCc2c1cc1n(c2=O)Cc2c-1nc1ccc(N)cc1c2N1CCCCC1 ?
< 5 nM

Which IC50 value is on record for CC[C@@]1(O)C(=O)OCc2c1cc1n(c2=O)Cc2c-1nc1ccc(N)cc1c2N1CCC1 ?
5 to 20 nM

Which IC50 value is on record for CC[C@@]1(O)C(=O)OCc2c1cc1n(c2=O)Cc2c-1nc1ccc(N)cc1c2N(C)CCN(C)C ?
> 20 nM
